# Test system: Jurkat
# measurement notes: Anti-proliferative activity, MTS assay, Jurkat
# Format: cell-based
# condition details: Homo sapiens, T-cell line, read-out: PRT382 IC50 (anti-proliferative)
# Description: Cell proliferation was assessed via MTS (3-[4,5-dimethylthiazol-2-yl]-5-[3-carboxymethoxyphenyl]-2-[4-sulfophenyl]-2H-tetrazolium) assay (Sigma), using the tetrazolium dye […]. Cell apoptosis was evaluated by Annexin V-FITC or PE and propidium iodide (PI) staining using FC500 cytometer (Beckman-Coulter, Indianapolis, IN) following the manufacturer’s procedure (BD Pharmingen, Billerica, MA)[55]. […]
pIC50: −log10 of the molar value.
reported property: pIC50

Record request: pIC50 value, item "CON=c1nc[nH]c2c1ccn2[C@@H]1O[C@H]([C@H](O)c2ccc(Cl)c(Cl)c2)[C@@H](O)[C@H]1O.Cl"
< 6.00

====

# Test system: Mec-1 cells
# measurement notes: Cell growth curves over 12 days, Mec-1
# Assay type: cell-based
# condition details: Mec-1, 1 nM, day 10
# Procedure: Live cells/mL were counted on days 3, 6, 10, and 12. […] The split factor was calculated at indicated time points by dividing the counted cells/mL by 3E5. Cell growth was extrapolated over time by multiplying the subsequent cell count by the previous split factor. Cell growth is plotted as fold change relative to DMSO-treated cells.
# binarize Rep 2 Live Cells [Fold Change]: threshold 300 Fold Change inclusive, high side label 1, low side label 0

Solved cases below.
Nc1ncnc2c1ccn2[C@@H]1O[C@H]([C@H](O)c2ccccc2)[C@@H](O)[C@H]1O
label 1
Nc1nc2cc(CC[C@H]3C[C@@H](n4ccc5c(N)ncnc54)[C@H](O)[C@@H]3O)ccc2cc1Br
label 0
O=C(NC[C@H](O)CN1CCc2ccccc2C1)c1cc(NC2COC2)ncn1
label 1
CON=c1nc[nH]c2c1ccn2[C@@H]1O[C@H]([C@H](O)c2ccc(Cl)c(Cl)c2)[C@@H](O)[C@H]1O.Cl
label 1

# next compound below
# bool: Rep 2 Live Cells [Fold Change] of Nc1ncnc2c1ccn2C1OC(C(O)c2ccc(Cl)c(F)c2)C(O)C1O (centres unmarked) >= 300 Fold Change
label 0

====

# measurement notes: Pharmacokinetic study, oral gavage to CD-1 mice, blood analyzed by LC-MS/MS
# Format: in vivo
# condition details: mouse, whole blood, po; 30 mg/kg, 1d-single dose, male CD-1 mice, fed, blood analysis, 0.5%CMC+0.5%Tween80
reported property: Cmax
// return the numeric value with its unit appended

Record request: Cmax value, item "CON=c1nc[nH]c2c1ccn2[C@@H]1O[C@H]([C@H](O)c2ccc(Cl)c(Cl)c2)[C@@H](O)[C@H]1O.Cl"
4.67 µg/mL

====

# measurement notes: Pharmacokinetic study, oral gavage to CD-1 mice, blood analyzed by LC-MS/MS
# Type: in vivo
# condition details: mouse, whole blood, po; 100 mg/kg, 1d-single dose, male CD-1 mice, fed, blood analysis, 0.5%CMC+0.5%Tween80
reported property: MRT (h)
Only the number, expressed in h, is required.

Record request: MRT value, item CON=c1nc[nH]c2c1ccn2[C@@H]1O[C@H]([C@H](O)c2ccc(Cl)c(Cl)c2)[C@@H](O)[C@H]1O.Cl [PRT382]
4.6

====

# Tested on: HG3 cells
# measurement notes: Cell growth curves over 12 days, HG3
# Assay type: cell-based
# condition details: HG3, 100 nM, day 3
# Description: Live cells/mL were counted on days 3, 6, 10, and 12. […] The split factor was calculated at indicated time points by dividing the counted cells/mL by 3E5. Cell growth was extrapolated over time by multiplying the subsequent cell count by the previous split factor. Cell growth is plotted as fold change relative to DMSO-treated cells.
reported property: Rep 1 Live Cells [Fold Change] (Fold Change)
Only the number, expressed in Fold Change, is required.

Use these answered entries as a reference point.
Nc1ncnc2c1ccn2[C@@H]1O[C@H]([C@H](O)c2ccccc2)[C@@H](O)[C@H]1O
5.133
Nc1nc2cc(CC[C@H]3C[C@@H](n4ccc5c(N)ncnc54)[C@H](O)[C@@H]3O)ccc2cc1Br
4.133
Nc1ncnc2c1ccn2C1OC(C(O)c2ccc(Cl)c(F)c2)C(O)C1O (centres unmarked)
3.157
O=C(NC[C@H](O)CN1CCc2ccccc2C1)c1cc(NC2COC2)ncn1
5.29

Consider the record given below.
Record request: Rep 1 Live Cells [Fold Change] value, item "CON=c1nc[nH]c2c1ccn2[C@@H]1O[C@H]([C@H](O)c2ccc(Cl)c(Cl)c2)[C@@H](O)[C@H]1O.Cl"
3.433

====

# Tested on: HG3 cells
# measurement notes: Cell growth curves over 12 days, HG3
# Type: cell-based
# condition details: HG3, 10 nM, day 6
reported property: Rep 1 Live Cells [Fold Change]

Use these answered entries as a reference point.
O=C(NC[C@H](O)CN1CCc2ccccc2C1)c1cc(NC2COC2)ncn1
44.77 Fold Change
CON=c1nc[nH]c2c1ccn2[C@@H]1O[C@H]([C@H](O)c2ccc(Cl)c(Cl)c2)[C@@H](O)[C@H]1O.Cl
48.6506 Fold Change
Nc1ncnc2c1ccn2C1OC(C(O)c2ccc(Cl)c(F)c2)C(O)C1O (centres unmarked)
11.445 Fold Change
Nc1ncnc2c1ccn2[C@@H]1O[C@H]([C@H](O)c2ccccc2)[C@@H](O)[C@H]1O
34.3278 Fold Change

Record request: Rep 1 Live Cells [Fold Change] value, item "Nc1nc2cc(CC[C@H]3C[C@@H](n4ccc5c(N)ncnc54)[C@H](O)[C@@H]3O)ccc2cc1Br"
4.86 Fold Change

====

# System: HG3 cells
# measurement notes: Cell growth curves over 12 days, HG3
# Format: cell-based
# condition details: HG3, 1 nM, day 3
# Method: Live cells/mL were counted on days 3, 6, 10, and 12. […] The split factor was calculated at indicated time points by dividing the counted cells/mL by 3E5. Cell growth was extrapolated over time by multiplying the subsequent cell count by the previous split factor. Cell growth is plotted as fold change relative to DMSO-treated cells.
# binarize Rep 2 Live Cells [Fold Change]: threshold 7 Fold Change inclusive, high side class 1, low side class 0

# bool: Rep 2 Live Cells [Fold Change] of "CON=c1nc[nH]c2c1ccn2[C@@H]1O[C@H]([C@H](O)c2ccc(Cl)c(Cl)c2)[C@@H](O)[C@H]1O.Cl" >= 7 Fold Change
class 1

# bool: Rep 2 Live Cells [Fold Change] of "Nc1ncnc2c1ccn2[C@@H]1O[C@H]([C@H](O)c2ccccc2)[C@@H](O)[C@H]1O" >= 7 Fold Change
class 0

# bool: Rep 2 Live Cells [Fold Change] of Nc1ncnc2c1ccn2C1OC(C(O)c2ccc(Cl)c(F)c2)C(O)C1O (centres unmarked) >= 7 Fold Change
class 0

# bool: Rep 2 Live Cells [Fold Change] of "Nc1nc2cc(CC[C@H]3C[C@@H](n4ccc5c(N)ncnc54)[C@H](O)[C@@H]3O)ccc2cc1Br" >= 7 Fold Change
class 0

# bool: Rep 2 Live Cells [Fold Change] of "O=C(NC[C@H](O)CN1CCc2ccccc2C1)c1cc(NC2COC2)ncn1" >= 7 Fold Change
class 0

====

# System: HG3 cells
# measurement notes: Cell growth curves over 12 days, HG3
# Assay type: cell-based
# condition details: HG3, 10 nM, day 10
reported property: Rep 2 Live Cells [Fold Change]
// return the numeric value with its unit appended

CON=c1nc[nH]c2c1ccn2[C@@H]1O[C@H]([C@H](O)c2ccc(Cl)c(Cl)c2)[C@@H](O)[C@H]1O.Cl [PRT382]
680.515 Fold Change

Record request: Rep 2 Live Cells [Fold Change] value, item Nc1nc2cc(CC[C@H]3C[C@@H](n4ccc5c(N)ncnc54)[C@H](O)[C@@H]3O)ccc2cc1Br [JNJ-64619178]
8.039 Fold Change

Record request: Rep 2 Live Cells [Fold Change] value, item O=C(NC[C@H](O)CN1CCc2ccccc2C1)c1cc(NC2COC2)ncn1 [EPZ015666]
308.347 Fold Change

Record request: Rep 2 Live Cells [Fold Change] value, item Nc1ncnc2c1ccn2C1OC(C(O)c2ccc(Cl)c(F)c2)C(O)C1O (centres unmarked) [PF-06855800]
14.8315 Fold Change

Record request: Rep 2 Live Cells [Fold Change] value, item Nc1ncnc2c1ccn2[C@@H]1O[C@H]([C@H](O)c2ccccc2)[C@@H](O)[C@H]1O [LLY-283]
335.523 Fold Change

====

# Tested on: Mec-1 cells
# measurement notes: Cell growth curves over 12 days, Mec-1
# Format: cell-based
# condition details: Mec-1, 1 µM, day 6
reported property: Rep 1 Live Cells [Fold Change]
// return the numeric value with its unit appended

Use these answered entries as a reference point.
Nc1ncnc2c1ccn2C1OC(C(O)c2ccc(Cl)c(F)c2)C(O)C1O (centres unmarked)
5.81 Fold Change
CON=c1nc[nH]c2c1ccn2[C@@H]1O[C@H]([C@H](O)c2ccc(Cl)c(Cl)c2)[C@@H](O)[C@H]1O.Cl
7.67 Fold Change
O=C(NC[C@H](O)CN1CCc2ccccc2C1)c1cc(NC2COC2)ncn1
54.0178 Fold Change
Nc1nc2cc(CC[C@H]3C[C@@H](n4ccc5c(N)ncnc54)[C@H](O)[C@@H]3O)ccc2cc1Br
0.841 Fold Change

Consider the record given below.
Record request: Rep 1 Live Cells [Fold Change] value, item "Nc1ncnc2c1ccn2[C@@H]1O[C@H]([C@H](O)c2ccccc2)[C@@H](O)[C@H]1O"
4.12 Fold Change
